- Tested System: pre-pro-insulin glargine
Quantity: Yield

Recorded Yield (protein trypsin variant SEQ ID NO: 115 (protein) IVGGYTCAANSIPYQVSLNSGSHRCGGSLINSQWVVSAAHCYKPRIQVRLGEHNIHVLEGNEQFINAAKIITHPNFNGNTLDNDIMLIKLSSPATLNSNVATVSLPTSCAAAGTECLISGWGNTSSSGSSMPSLLQCLKAPVLSDSSCKSSYPGQITGNMICVGFLEGGKDACQGDSGGPVVCNGQLQGIVSSGYGCAQKNKPGVYTKVCNYVNWIQQTIAAN ): > 90%

Just for reference, patent US20230303994 is where these values come from.
